# tested.system: JAK2 (Homo sapiens, UniProt O60674)
# Construct: host or cells: baculovirus expression system
# Sequence (O60674 whole entry): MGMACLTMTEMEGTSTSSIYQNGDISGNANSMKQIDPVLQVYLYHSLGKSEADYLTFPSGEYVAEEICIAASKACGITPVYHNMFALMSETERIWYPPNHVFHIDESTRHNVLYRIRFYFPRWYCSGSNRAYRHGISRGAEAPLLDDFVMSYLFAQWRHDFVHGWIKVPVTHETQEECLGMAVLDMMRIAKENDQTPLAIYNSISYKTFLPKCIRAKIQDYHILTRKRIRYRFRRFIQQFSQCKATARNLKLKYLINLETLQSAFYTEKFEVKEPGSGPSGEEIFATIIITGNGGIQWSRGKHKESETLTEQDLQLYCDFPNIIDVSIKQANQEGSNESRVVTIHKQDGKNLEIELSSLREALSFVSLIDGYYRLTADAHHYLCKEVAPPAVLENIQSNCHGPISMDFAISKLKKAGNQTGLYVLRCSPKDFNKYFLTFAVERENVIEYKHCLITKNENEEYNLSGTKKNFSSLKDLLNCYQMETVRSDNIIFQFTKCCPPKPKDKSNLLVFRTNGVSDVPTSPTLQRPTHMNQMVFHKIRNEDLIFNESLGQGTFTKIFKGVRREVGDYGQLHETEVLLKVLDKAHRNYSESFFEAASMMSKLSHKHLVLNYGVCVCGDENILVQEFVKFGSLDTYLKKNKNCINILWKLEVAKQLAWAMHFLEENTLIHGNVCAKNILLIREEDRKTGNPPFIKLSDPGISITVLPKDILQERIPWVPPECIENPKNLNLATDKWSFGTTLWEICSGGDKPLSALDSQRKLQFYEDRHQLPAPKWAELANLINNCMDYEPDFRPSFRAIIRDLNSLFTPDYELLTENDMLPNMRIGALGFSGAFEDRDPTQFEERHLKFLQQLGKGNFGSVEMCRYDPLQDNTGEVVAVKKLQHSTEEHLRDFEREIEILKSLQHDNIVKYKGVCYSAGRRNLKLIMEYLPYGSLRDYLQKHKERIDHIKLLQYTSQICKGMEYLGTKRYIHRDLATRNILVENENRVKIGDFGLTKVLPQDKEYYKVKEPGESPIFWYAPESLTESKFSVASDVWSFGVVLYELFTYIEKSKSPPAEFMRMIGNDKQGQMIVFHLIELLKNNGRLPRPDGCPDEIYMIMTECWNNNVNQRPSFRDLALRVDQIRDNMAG
# procedure.summary: Recombinant Human JAK2 Kinase Assay (TRF)
# Type: biochemical
# run.parameters: JAK2 kinase inhibition, 0.2 μM ATP; read-out: JAK2 Potency
pIC50: −log10 of the molar value.
Quick reference: pIC50 of the listed items.

compound.structure	tested.system	pIC50
COc1ccccc1-c1ccc2cnc(Nc3ccc4nc(C(C)(C)C)[nH]c4c3)nn12	JAK2 (Homo sapiens, UniProt O60674)	> 7.00
Cn1cc(-c2ccc3cnc(Nc4ccc5c(c4)NC(=O)C5)nn23)cn1	JAK2 (Homo sapiens, UniProt O60674)	> 7.00
CN1CCN(c2cccc(Nc3ncc4ccc(NCc5ccncc5)n4n3)c2)CC1	JAK2 (Homo sapiens, UniProt O60674)	6.00 to 7.00
CN1CCN(c2cccc(Nc3ncc4ccc(-c5cnn(CCC#N)c5)n4n3)c2)CC1	JAK2 (Homo sapiens, UniProt O60674)	> 7.00

---

# tested.system: JAK2 (Homo sapiens)
# Construct: host or cells: baculovirus expression system
# procedure.summary: Recombinant Human JAK2 Kinase Assay (TRF)
# Assay type: biochemical
# run.parameters: JAK2 Kinase Inhibition; read-out: JAK2 Potency

molecule	IC50
COc1cc(N2CCC(N3CCC(F)(F)CC3)CC2)ccc1Nc1ncc2ccc(-c3ccccc3OC)n2n1	100 to 1000 nM
COc1cc(N2CCN(C)CC2)ccc1Nc1ncc2ccc(-c3cccc(S(C)(=O)=O)c3)n2n1	< 100 nM
CCN(CC)C(=O)c1ccccc1-c1ccc2cnc(Nc3ccc(N4CCN(C)CC4)cc3)nn12	< 100 nM
CC1(C)C(=O)Nc2cc(Nc3ncc4ccc(-c5cccc(N6CCCS6(=O)=O)c5)n4n3)ccc21	< 100 nM
c1ccc(Sc2ccc3cnc(Nc4ccc(N5CCOCC5)cc4)nn23)cc1	< 100 nM
CN1CCN(C)C(c2ccc(Nc3ncc4ccc(-c5cccc(S(=O)(=O)NC(C)(C)C)c5)n4n3)cc2)C1 (stereo not shown)	< 100 nM
COc1cc(C2CCN(CC(N)=O)CC2)ccc1Nc1ncc2ccc(-c3cccc4c3OC(F)(F)O4)n2n1	1000 to 10000 nM
COc1ccc(OC)c(-c2ccc3cnc(Nc4ccc(N5CCOCC5)cc4)nn23)c1	< 100 nM
CS(=O)(=O)Nc1ccc(-c2ccc3cnc(Nc4ccc(N5CCOCC5)cc4)nn23)cc1	< 100 nM
CN1CCN(c2ccc(Nc3ncc4ccc(-c5ccccc5)n4n3)cc2)CC1	< 100 nM
CN(c1ccccc1-c1ccc2cnc(Nc3ccc4nc(CN5CCOCC5)[nH]c4c3)nn12)S(C)(=O)=O	< 100 nM
CS(=O)(=O)Nc1ccccc1-c1ccc2cnc(Nc3cccc(N4CCOCC4)c3)nn12	< 100 nM
COc1cc(N2CCC[C@H](C(=O)N3CCN(C)CC3)C2)ccc1Nc1ncc2ccc(-c3ccccc3N(C)S(C)(=O)=O)n2n1	100 to 1000 nM
COc1ccc(-c2ccc3cnc(Nc4ccc(C(F)(F)C(=O)N5CCN(C)CC5)cc4)nn23)cn1	< 100 nM
FC(F)(F)c1cc(-c2ccc3cnc(Nc4ccc(N5CCOCC5)cc4)nn23)ccc1Cl	< 100 nM
CC(=O)Nc1cc(Nc2ncc3ccc(-c4cccc(S(=O)(=O)NC(C)(C)C)c4)n3n2)ccc1C(C)(C)C	< 100 nM
